Would you kindly list pIC50 for each of these compounds?
Target: hNotch1ICD (Homo sapiens, UniProt P46531)
Construct: pLV[Tet]-Puro-TRE3G>Notch1-ICD; expressed in transfected cells; host or cells: 293A cells
Sequence (P46531 1754-2555 limits assumed): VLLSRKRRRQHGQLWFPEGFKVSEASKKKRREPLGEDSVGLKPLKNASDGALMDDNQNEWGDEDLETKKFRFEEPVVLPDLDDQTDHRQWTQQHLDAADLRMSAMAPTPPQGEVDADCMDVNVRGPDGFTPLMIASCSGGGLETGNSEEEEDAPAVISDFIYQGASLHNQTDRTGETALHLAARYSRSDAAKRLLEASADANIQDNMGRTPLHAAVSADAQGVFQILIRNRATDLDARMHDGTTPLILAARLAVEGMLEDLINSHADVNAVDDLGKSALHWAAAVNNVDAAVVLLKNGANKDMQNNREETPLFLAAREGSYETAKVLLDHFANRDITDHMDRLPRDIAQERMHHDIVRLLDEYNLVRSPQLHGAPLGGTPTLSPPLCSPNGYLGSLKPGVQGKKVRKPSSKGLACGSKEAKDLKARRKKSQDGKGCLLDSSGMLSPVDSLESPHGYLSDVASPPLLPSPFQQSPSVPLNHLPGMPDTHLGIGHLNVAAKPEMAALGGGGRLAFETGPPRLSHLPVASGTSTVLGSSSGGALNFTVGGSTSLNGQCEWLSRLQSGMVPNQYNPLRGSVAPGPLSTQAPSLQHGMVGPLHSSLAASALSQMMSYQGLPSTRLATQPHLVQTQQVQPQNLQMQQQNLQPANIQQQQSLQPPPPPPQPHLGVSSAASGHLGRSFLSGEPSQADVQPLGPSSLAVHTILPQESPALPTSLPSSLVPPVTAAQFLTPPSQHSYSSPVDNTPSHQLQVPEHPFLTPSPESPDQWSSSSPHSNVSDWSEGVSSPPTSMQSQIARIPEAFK
Test: Notch1 Reporter Assay (Dox-inducible Notch1-ICD, CSL-responsive luciferase in 293A cells)
Assay type: cell-based
Settings: 293A cells, 24 h, luciferase normalized to cell viability; read-out: Notch1 Reporter Assay IC50
pIC50 is defined as minus the log10 of a concentration measured in mol/L.

So for `CC(C)Cn1c(=O)c(C(=O)Nc2cc(F)ccc2N2CCN(C)CC2)c(O)c2ccccc21` , the logged pIC50 turned out to be 5.10

So for `CC(C)Cn1c(=O)c(C(=O)Nc2cc(F)c(N3CCN(C)CC3)c(F)c2)c(O)c2ccccc21` , the logged pIC50 turned out to be 5.72

So for `CC(C)Cn1c(=O)c(C(=O)Nc2cnn(C)c2)c(O)c2ccccc21` , the logged pIC50 turned out to be 4.95

So for Cc1cccnc1NC(=O)c1c(O)c2ccc(N3CCN(C)CC3)cc2n(CC(C)C)c1=O [580(02)] , the logged pIC50 turned out to be 4.85
